system: NCI-H322M; test: Growth inhibition of human NCI-H322M cells incubated for 48 hrs by sulforhodamine B assay; type: functional
GI50 strictly less than 1000 nM = true (1). Otherwise false (0).

[
  {
    "Molecule Smiles": "N=C(N)c1ccc(-c2ccc(-c3ccc(F)cc3)s2)cc1",
    "Category Label": "false (0)"
  },
  {
    "Molecule Smiles": "COc1cc(OC)cc(-c2ccc(-c3ccc(C(=N)N)c(F)c3)s2)c1",
    "Category Label": "true (1)"
  },
  {
    "Molecule Smiles": "N=C(N)c1ccc(-c2ccc(-c3ccc(Cl)cc3)s2)cc1",
    "Category Label": "true (1)"
  },
  {
    "Molecule Smiles": "COc1cc(OC)cc(-c2ccc(-c3ccc(C(=N)N)cc3)s2)c1",
    "Category Label": "false (0)"
  },
  {
    "Molecule Smiles": "N=C(N)c1ccc(-c2ccc(-c3ccccc3)s2)cc1F",
    "Category Label": "false (0)"
  },
  {
    "Molecule Smiles": "COc1ccc(-c2ccc(-c3ccc(C(=N)N)c(F)c3)s2)cc1",
    "Category Label": "false (0)"
  },
  {
    "Molecule Smiles": "COc1ccc(-c2ccc(-c3ccc(C(=N)N)cc3)s2)cc1",
    "Category Label": "false (0)"
  },
  {
    "Molecule Smiles": "N=C(N)c1ccc(-c2ccc(-c3ccc(Cl)cc3)s2)cc1F",
    "Category Label": "true (1)"
  }
]

----------
test system: HT-29; experiment: Growth inhibition of human HT-29 cells incubated for 48 hrs by sulforhodamine B assay; type: functional; conditions: HT-29, 48 h

[
  {
    "Molecule Smiles": "COc1cc(OC)cc(-c2ccc(-c3ccc(C(=N)N)c(F)c3)s2)c1",
    "Scale Unit": "nM",
    "GI50": 267
  },
  {
    "Molecule Smiles": "COc1cc(OC)cc(-c2ccc(-c3ccc(C(=N)N)cc3)s2)c1",
    "Scale Unit": "nM",
    "GI50": 1090
  },
  {
    "Molecule Smiles": "N=C(N)c1ccc(-c2ccc(-c3ccc(Cl)cc3)s2)cc1F",
    "Scale Unit": "nM",
    "GI50": 203
  }
]

----------
test system: OVCAR-8; assay: Growth inhibition of human OVCAR8 cells incubated for 48 hrs by sulforhodamine B assay; assay type: functional; details: OVCAR-8, 48 h
Experimental Endpoint: GI50

[
  {
    "Molecule Smiles": "COc1cc(OC)cc(-c2ccc(-c3ccc(C(=N)N)cc3)s2)c1",
    "Reported Value": "2480 nM"
  },
  {
    "Molecule Smiles": "N=C(N)c1ccc(-c2ccc(-c3ccccc3)s2)cc1F",
    "Reported Value": "11300 nM"
  },
  {
    "Molecule Smiles": "N=C(N)c1ccc(-c2ccc(-c3ccc(Cl)cc3)s2)cc1",
    "Reported Value": "223 nM"
  }
]
